Assayed Target: Voltage-gated potassium channel subunit beta-2 (Rattus norvegicus) (UniProt P62483)
Sequence (P62483 whole entry, looked up): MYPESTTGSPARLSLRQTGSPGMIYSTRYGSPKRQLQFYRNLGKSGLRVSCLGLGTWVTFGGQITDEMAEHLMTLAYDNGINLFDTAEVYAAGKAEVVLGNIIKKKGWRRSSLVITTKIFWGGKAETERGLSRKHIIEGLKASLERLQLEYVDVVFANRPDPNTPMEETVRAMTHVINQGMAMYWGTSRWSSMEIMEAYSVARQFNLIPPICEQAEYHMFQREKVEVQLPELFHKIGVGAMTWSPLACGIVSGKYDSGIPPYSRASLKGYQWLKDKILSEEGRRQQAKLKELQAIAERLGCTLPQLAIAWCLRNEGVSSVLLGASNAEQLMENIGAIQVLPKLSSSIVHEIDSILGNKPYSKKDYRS
Assay Overview: KvBeta positive modulators, primary screen, biochemical, NADPH fluorescence (AID 623);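 further: fluorescence intensity change per second fitted from 20 to 320 s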
Protocol Conditions: Recombinant KvBeta, NADPH fluorescence decrease slope, 10 min; at 10 µM; stronger effect = lower value
Experimental Endpoint: NADPH fluorescence slope
Reply with just the number.

GET /values?readout=NADPH fluorescence slope&item= "CCOC(=O)c1c(C)[nH]c(/C(C)=N/O)c1C"
-3.4e-05

// query: COc1ccccc1C1/C(=C(/O)c2cnn(-c3ccccc3)c2C)C(=O)C(=O)N1CCN(C)C (stereo unspecified)
-7e-05

Consider next the compound COc1cccc(/C(O)=C2/C(=O)C(=O)N(CCCN(C)C)C2c2cccc(Cl)c2)c1 (stereo unspecified) in the same way.
-5.7e-05

What do we get for "O=C1CCC(=O)N1CNc1ccccn1" ?
-5.8e-05

What do you have for COc1ccc(/C(O)=C2/C(=O)C(=O)N(CCCN(C)C)C2c2cccc(Cl)c2)cc1OC (stereo unspecified) ?
-5.4e-05

Would you mind doing Cc1c(N2C(=O)SC(CC(=O)O)C2=O)c(=O)n(-c2ccccc2)n1C (stereo unspecified) as well?
-3.7e-05

Now the compound CC(C)OC(=O)C(C#N)c1nc2ccccc2nc1N1CCN(Cc2ccc3c(c2)OCO3)CC1 (stereo unspecified)
-0.000113

Queued: C=C(C)CSC1=C(C#N)C(c2ccsc2)CC(=O)N1 (stereo unspecified)
-6.2e-05

Another compound to look at: COC(=O)CC1=C(C(=O)OC)C(c2ccc3c(c2Cl)OCO3)C(C#N)=C(N)O1 (stereo unspecified)
-2.9e-06

And for "CCN(CC)CCOC(=O)C(c1ccccc1)c1ccccc1" ?
-3.2e-05

Now the same for "Cc1nc(-c2cn[nH]c2)c2cc(C)oc2n1"
-0.00022

Query "COc1ccc(-c2cc(=O)[nH]c(=O)[nH]2)cc1" next
-0.000273

Param item: "CCCn1c(=O)[nH]c(=O)c2[nH]cnc21"
-7.3e-05

Now consider CCOC(=O)C1CCCN(c2nc3ccccc3nc2C(C#N)C(=O)OC(C)C)C1 (stereo unspecified) .
-3.6e-05

Same question, COC(=O)CC1=C(C(=O)OC)C(c2ccncc2)C(C#N)=C(N)O1 (stereo unspecified) this time
1e-05

Could you do the same for "O=C(O)CCCC(=O)Nc1ccn(-c2ccccc2)n1" , please?
-2.7e-05

Next record, please: COc1ccc(OC)c(C(O)c2coc3ccc(O)c(CN4CCOCC4)c23)c1 (stereo unspecified)
-6.9e-05

Proceed to "N#Cc1c(N)n(CCOC(=O)c2cccc(Br)c2)c2nc3ccccc3nc12"
-0.000171

Field entry: CC1(C)NC(=O)N(CC(O)COc2ccccc2C(=O)Nc2ccccc2)C1=O (stereo unspecified)
-0.000337

Next compound up: CCNc1nc(NC(C)C)nc(N(C#N)C(C)C(=O)N(C)C)n1 (stereo unspecified)
-0.000124

Consider next the compound "Cc1ccc(OCC(=O)NCC(=O)n2nc(C)cc2C)cc1" in the same way.
-2.8e-05

Continue with "CC(=O)[C@H]1CC[C@H]2[C@@H]3CCC4=CC(=O)CC[C@]4(C)[C@H]3[C@H](O)C[C@]12C"
4.5e-06

Can you check "Cc1cc(-c2ccccc2)nnc1NCCN1CCOCC1" next?
-2e-05

Another compound: "CN1CCc2nc(SCC(=O)Nc3ccc(Cl)cc3)c(C#N)cc2C1"
-0.000135

Follow-up item: "COc1ccc(C(=O)Nc2cccnc2)cc1C(=O)Nc1cccnc1"
-4.6e-05

Next up: CCCCOc1nc2ccccc2nc1C(C#N)C(=O)NC1CCCCC1 (stereo unspecified)
-0.00013

Also, "CN1CCN(CCCN2c3ccccc3Sc3ccc(Cl)cc32)CC1" please.
1.3e-05

Do the same for CSc1ccc2c(c1)N(CCC1CCCCN1C)c1ccccc1S2 (stereo unspecified) please
-5.2e-05

What would you report for Cc1ccc(/C(O)=C2/C(=O)C(=O)N(Cc3ccco3)C2c2cccs2)cc1 (stereo unspecified) ?
-6.4e-05

How about "C[C@]12CC[C@@H]3c4ccc(OC(=O)c5ccccc5)cc4CC[C@H]3[C@@H]1CC[C@@H]2O" ?
-8.1e-05

Lookup COc1ccc(OC)c(C2/C(=C(/O)c3ccc(C)cc3)C(=O)C(=O)N2Cc2ccco2)c1 (stereo unspecified)
-1.3e-05

How about CC12CCC(C(=O)N(CCC#N)CCC#N)(CC1=O)C2(C)C (stereo unspecified) ?
-9.3e-05

Moving on to the next compound: "CCOC(=O)CC(=O)CSc1nc(N)c(C#N)c(-c2ccc(Cl)cc2)c1C#N"
1.7e-05

Same thing, different compound: COCc1[nH]nc2c1C(c1ccccc1OC)C(C#N)=C(N)O2 (stereo unspecified)
-1.1e-05

# iterate: "CC1(C)Nc2ccc(O)cc2-c2c1ssc2=S"
3.7e-06

// same read-out, input: "COc1ccc(CCn2c(C)ccc2C)cc1OC"
-8e-05

What about "CCCCn1c(C)cc2cc(O)ccc21" ?
-0.000136

What do you have for "O=C(O)CCCc1ccccc1" ?
-3.8e-05

And COc1cccc(C2/C(=C(/O)c3cnn(-c4ccccc4)c3C)C(=O)C(=O)N2CCN(C)C)c1OC (stereo unspecified) ?
-2.1e-05

Param item: NS(=O)(=O)c1cc2c(cc1C(F)(F)F)NC(Cc1ccccc1)NS2(=O)=O (stereo unspecified)
7.9e-07

Also "COc1cc(C(=O)OCCN2CCCCC2)ccc1O" ?
-0.000169

Next compound up: "CCOc1nc(SCCOc2ccccc2)nc(N(C)C)n1"
1.4e-05

Same question, "CC1(C)Cc2c(sc3c4nnnn4c4nnnn4c23)CO1" this time
-9.6e-05

Subsequent entry: "NC(N)=NC(N)=NCCc1ccccc1"
-1.7e-05

Entry "CC(C)(Oc1ccc(CCNC(=O)c2ccc(Cl)cc2)cc1)C(=O)O" please
-4.1e-05

Could you do the same for "Oc1ccc(/C=C/c2cc(O)cc(O)c2)cc1" , please?
-0.000101
